# Target or test system: Homeobox protein Hox-A13 (Mus musculus) (UniProt Q62424)
# Sequence (Q62424 whole entry, looked up): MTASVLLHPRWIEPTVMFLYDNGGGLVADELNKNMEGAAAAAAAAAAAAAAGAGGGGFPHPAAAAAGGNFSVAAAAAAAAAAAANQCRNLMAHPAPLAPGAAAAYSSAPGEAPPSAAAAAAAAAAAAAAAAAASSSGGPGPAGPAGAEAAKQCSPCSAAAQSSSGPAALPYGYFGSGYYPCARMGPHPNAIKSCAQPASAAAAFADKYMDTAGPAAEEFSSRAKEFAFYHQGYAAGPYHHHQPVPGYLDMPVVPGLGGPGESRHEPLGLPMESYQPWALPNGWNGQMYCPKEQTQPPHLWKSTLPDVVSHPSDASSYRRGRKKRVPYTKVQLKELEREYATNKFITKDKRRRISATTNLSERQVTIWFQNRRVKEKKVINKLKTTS
# Measurement protocol: inhibitors of HoxA13-DNA binding, primary screen, biochemical, fluorescence polarization, labeled oligonucleotide (AID 1185)
# Test conditions: 15 min, higher = more signal, called active from +8 up or from −8 down
Readout kind: z-score
Keep the answer to the number alone.

Below, 4 compounds whose answers are already recorded.
CC(C)c1ccc(NN2C(C(O)c3cccc(O)c3)C=CC3C(=O)N(c4ccccc4)C(=O)C32)cc1 (stereo not given)	-4.3
COC(=O)c1ccc(C23CC2(C(NP(=O)(c2ccccc2)c2ccccc2)c2ccccc2)C3)cc1 (stereo not given)	-3.76
CCOc1cc(C(O)C2C=CC3C(=O)N(c4ccccc4)C(=O)C3N2Nc2ccc([N+](=O)[O-])cc2)ccc1O (stereo not given)	-5.51
Cc1cc(C)cc(N2C(=O)CS(=O)(=O)C2c2cccc([N+](=O)[O-])c2)c1 (stereo not given)	-0.0181

The record that follows has no z-score shown yet.
Q: Form field: reported z-score of COc1cc(C(O)C2C=CC3C(=O)N(c4ccccc4)C(=O)C3N2Nc2ccc(C#N)cc2)cc(OC)c1OC (stereo not given)
A: -4.55

----------
z-score values, listed per item
# Measurement protocol: FRG1 promoter luciferase signal modulators, primary screen, FRG1 inhibition for FSHD, cell-based, C2C12 myotubes, firefly/Renilla luciferase, luminescence (AID 1084)
# Test conditions: higher = more signal, called active from +8 up or from −8 down
Keep the answer to the number alone.

Below, 4 compounds whose answers are already recorded.
CCCNC(=O)[C@@H]1c2ccccc2C(=O)N(Cc2ccccc2)[C@H]1c1ccc(CO)cc1	-1.14
COc1ccc(C#Cc2ccc3c(c2)[C@]2(C(=O)N3)[C@H](C(=O)NC[C@H](O)c3ccccc3)[C@H]3C(=O)O[C@H](c4ccccc4)[C@H](c4ccccc4)N3[C@@H]2c2ccc(OCCO)cc2)cc1	0.943
CCC(CC)C(O)C1C=CC2C(=O)N(c3ccccc3)C(=O)C2N1Nc1ccc(C#N)cc1 (stereo not drawn)	-1.02
CC(C)NC(=O)[C@@]1(Cc2ccccc2I)c2ccccc2C(=O)N(Cc2ccccc2)[C@H]1c1ccc(CO)cc1	-2.91

Q: Form field: reported z-score of "COCC(=C=CC[C@H](O)c1ccc(OCCO)cc1)C[C@H](O)c1cc(Cl)cc(Cl)c1O"
A: -3.67

Q: // query: "O=C1N(CCS(=O)(=O)c2ccccc2)c2ccccc2C[C@@]12COC(c1ccc(OCCCO)cc1)=N2"
A: 1.18

Q: // query: CCOC(=O)C1=CCC(c2ccc([N+](=O)[O-])cc2)N(S(=O)(=O)c2ccc(C)cc2)C1 (stereo not drawn)
A: -2.47

Q: // query: N#Cc1ccc(NN2C(C(O)c3cccs3)C=CC3C(=O)N(c4ccccc4)C(=O)C32)cc1 (stereo not drawn)
A: -0.911

----------
composite z-score values, listed per item
# Tested on: XIP peptide (Xip251-270)
# Measurement protocol: small-molecule binders of XIP peptide, primary screen, biochemical, small-molecule microarray, fluorescence 635/667 nm, 0.5 µg/mL protein (AID 1183)
# Test conditions: small-molecule microarray binding, fluorescence 635 nm; higher = more signal
Keep the answer to the number alone.

Q: Form field: reported composite z-score of "C=C(COC)C(=O)CC[C@H](OC(C)=O)c1cccc(OCCO)c1"
A: -0.762

Q: // query: "COCCOC(=O)N1C(=O)[C@@]2(c3cc(C#CC4=CCCCC4)ccc31)[C@H](C(=O)N1CCc3cc(OC)c(OC)cc3C1)[C@H]1C(=O)O[C@H](c3ccccc3)[C@H](c3ccccc3)N1[C@@H]2c1ccccc1OCCO"
A: 0.544

Q: // query: COc1ccc(NN2C(C(O)c3ccc(OC)c(OCc4ccccc4)c3)C=CC3C(=O)N(C4CCCCC4)C(=O)C32)cc1 (stereo not drawn)
A: 0.628

Recorded values, source PubChem BioAssay.
